Each entry below carries its reported Kd.
molecular target: T1, human dimeric EGFR (EGFR.mFc) (human); test: SPR 37C, mAb captured by anti-human Fc, EGFR.mFc analyte
T1 construct: Soluble dimeric EGFR construct
I only need the number, in pM, no unit after it.

// Kd lookup, key: H1H161P (antibody, human IgG1, V domains shown, Human IgG1 Fc (H1H)) VH: QVQLVESGGGVVQPGRSLRLSCAASGFTFSNYGMYWVRQAPGKGLEWVTFISYDGSNKNYVDSMKGRFTISRDNSKNTLYLQMNSLRVEDTAVYYCAKDRISGTPWYGMDVWGQGTTVTVSS VL: DIQMTQSPSSLSASVGDRVTITCRASQDIADYLAWFQQKPGKAPKSLIFAASSLESWVPLKFSGSGSGTDFTLTISSLQPEDFATYYCQQYSRFPITFGQGTKVEIK 1.59

Next:
// Kd lookup, key: H1H159P (antibody, human IgG1, V domains shown, Human IgG1 Fc (H1H)) VH: EVQLVESGGGLVQPGGSLRLSCAASRFTFTNYWMSWVRQAPGKGLEWVAKIKQDGSEKYYLDSVKDRFTISRDNAKNSLYLQMNSLRAEDTAVYYCASSSSWYDYYYGMDVWGHGTTVTVSS VL: EIVLTQSPDFQSVTPKEKVTITCRASQSIGTNLHWYQQRPDQSPKLLIKFASQSFSGVPSRFSGSGSGTDFTLTINSLEAEDAATYYCHQTNFLPHTFGGGTKVEIKR 3.44

Also check H1H169P (antibody, human IgG1, V domains shown, Human IgG1 Fc (H1H)) VH: EVQLVESGGGLVQPGGSLRLSCAASRFTFSTYWMSWVRQAPGKGLEWVAKIKQDGSEKYYLDSVKDRFTISRDNAKNSLYLQMNSLRAEDTAVYYCASSITWYDYYYGMDVWGHGTTVTVSS VL: EIVLTQSPDFQSVTPKEKVTITCRASQSIGSNLHWYQQKPDQSPNLLIKFASQSFSGVPSRFSGSGSGTDFTLTINSLEAEDAATYYCHQTNFLPHTFGGGTKVEIK 7.36
